- experimental.details: Time course of conversion to indirubin in FaSSGF at 37° C.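 Further: compound incubated in fasted state simulated gastric fluid, species in samples quantified by UPLC-MS with UV (210–400 nm) and ELS detection.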
- Format: physicochemical
- applied.conditions: FaSSGF (Example 4; table title prints FaSSIF) 37° C., 15 min
Assign TRUE to entries whose indirubin meets or exceeds 90%; assign FALSE to the rest.

compound: CCN(CC)CN1C(=O)/C(=C2\Nc3ccccc3C2=O)c2ccccc21 [drawing 267]
assigned.label: TRUE

Is reported indirubin greater than or equal to 90% here: CC(=O)N1CCN(CN2C(=O)/C(=C3\Nc4ccccc4C3=O)c3ccccc32)CC1 [drawing 281]
FALSE

Also, CNCCNC(=O)N1C(=O)/C(=C2\Nc3ccccc3C2=O)c2ccccc21.Cl [drawing 279] please.
FALSE

Also, CN(C)CCN(C)CN1C(=O)/C(=C2\Nc3ccccc3C2=O)c2ccccc21 [drawing 268] please.
TRUE

Also, O=C1/C(=C2/C(=O)N(CN3CCCCC3)c3ccccc32)Nc2ccccc21 [drawing 269] please.
TRUE
